Below is a list of entries, each paired with its recorded Kd value.
- Target Under Test: T1, rat MerTK (rat, UniProt P57097 23-496, limits assumed)
- T1 construct: Soluble analyte in SPR
- T1 sequence (looked up): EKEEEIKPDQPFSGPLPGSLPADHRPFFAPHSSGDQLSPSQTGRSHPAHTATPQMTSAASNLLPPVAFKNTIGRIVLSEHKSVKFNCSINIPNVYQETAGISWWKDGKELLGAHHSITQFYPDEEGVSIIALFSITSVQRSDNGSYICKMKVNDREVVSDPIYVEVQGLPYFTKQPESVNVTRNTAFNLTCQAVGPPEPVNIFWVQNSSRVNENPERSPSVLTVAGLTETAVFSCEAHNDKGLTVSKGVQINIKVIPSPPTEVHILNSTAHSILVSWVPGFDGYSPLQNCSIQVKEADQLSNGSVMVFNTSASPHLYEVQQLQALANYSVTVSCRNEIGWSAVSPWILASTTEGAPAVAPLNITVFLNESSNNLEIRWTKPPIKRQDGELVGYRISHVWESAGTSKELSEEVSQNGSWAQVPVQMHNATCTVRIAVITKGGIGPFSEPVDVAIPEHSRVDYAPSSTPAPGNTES
- Assay Comment: SPR BIAcore T200, Ab captured, 37C

Binder | Kd / nM
h10F7.v1 (antibody, V domains shown, also called h10F7.V1 (Parent); 10F7 Humanized mAb V1) VH: EQQLVESGGGLVQPGGSLRLSCAVSGFSLSGYAMSWVRQAPGKGLEYIGVISSSGSSYYPSWAKGRFTISKDSSKNTVYLQMGSLRAEDMAVYFCARVQFYVGYAVYGYGIIDRLDLWGQGTLVTVSS VL: DAVLTQSPDSLAVSLGERATINCQSSKSVYNNNWLSWYQQKPGQPPKLLIYRASTLESGVPDRFSGSGSGTDFTLTISSLQAEDVAVYFCAGGYSSSSSANAFGGGTKVEIK | 3.6
h10C3.v1 (antibody, V domains shown, also called h10C3.V1 (Parent); 10C3 Humanized mAb V1) VH: EQQLVESGGGLVQPGGSLRLSCAASGFSLSGYTMGWVRQAPGKGLEYIGVISSGGTTYYTNWAKGRFTISKDSSKNTVYLQMGSLRAEDMAVYFCARVAFTAYGGGGFPTLHRLDLWGQGTLVTVSS VL: DQVLTQSPDSLAVSLGERATINCQSSESVYNNDYLAWYQQKPGQPPKLLIYSASTLASGVPDRFSGSGSGTDFTLTISSLQAEDVAVYYCAGGYLGNNVFGGGTKVEIK | 3.3
Rbt9E3.FN (antibody, V domains shown, Recombinant rabbit monoclonal antibody, Expi293, protein A purified) VH: QSVEESGGRLVTPGTPLTLTCTVSGFSLSSNAMSWVRQAPGKGLEWIGIISSSGSTYSASWAKGRFTISKTSTTMDLKITSPTTEDTATYFCARVGFFVGYGAYDYGIIHRLDLWGQGTLVTVSS VL: AAVLTQTPSPVSAAVGGTVSISCQSSKSIYNNNWLSWYQQKPGQPPKLLIYDASDLASGVPSRFEGSGSGTEFTLTISDLECDDAATYYCAGGYSGDSDYAFGGGTEVVVK | 1.7
